Assay: ATG_PXRE_CIS: Attagene CIS-FACTORIAL HepG2 Assay for human Pregnane X Receptor Element (PXRE) (AID 2282957)
Conditions: HepG2 Attagene CIS-FACTORIAL PXRE reporter, mRNA; actives raise or lower the signal
The source made the active and inactive calls. How the source made its calls: active means hit-call score of the fitted dose curve at least 0.9, where 1 is the maximum; inactive means score below 0.9.
Reply using exactly one outcome from Y for active, N for inactive

- CC(C)[C@H](C(=O)O[C@H](C#N)c1cccc(Oc2ccccc2)c1)c1ccc(Cl)cc1: Y

Assay outcome for CCOP(=S)(OCC)OC(Cl)C(Cl)(Cl)Cl (stereo not drawn) : what was it?
Y

Assay outcome for CCOP(=O)(NC(C)C)Oc1ccc(SC)c(C)c1 (stereo not drawn) : what was it?
Y

Assay outcome for `CN(C)C(=O)Nc1cccc(C(F)(F)F)c1` : what was it?
N

Assay outcome for `CC(=NC#N)N(C)Cc1ccc(Cl)nc1` : what was it?
Y
